Target: recombinant human CB1 receptors (Homo sapiens, UniProt P21554)
Sequence (P21554 whole entry): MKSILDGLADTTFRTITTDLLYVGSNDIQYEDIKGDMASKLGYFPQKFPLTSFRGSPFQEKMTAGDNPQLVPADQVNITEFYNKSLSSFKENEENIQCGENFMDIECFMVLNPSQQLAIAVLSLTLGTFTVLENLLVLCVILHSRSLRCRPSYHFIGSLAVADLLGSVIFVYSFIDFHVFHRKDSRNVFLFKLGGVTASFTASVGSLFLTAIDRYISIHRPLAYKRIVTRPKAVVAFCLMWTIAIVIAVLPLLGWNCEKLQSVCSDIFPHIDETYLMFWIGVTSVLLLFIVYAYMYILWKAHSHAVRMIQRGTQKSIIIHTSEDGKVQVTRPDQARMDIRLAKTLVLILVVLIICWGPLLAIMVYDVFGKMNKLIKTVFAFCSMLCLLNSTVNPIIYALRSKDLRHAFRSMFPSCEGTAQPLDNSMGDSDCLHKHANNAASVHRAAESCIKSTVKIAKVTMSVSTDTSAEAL
Test: Binding to CB1 receptors
Details: [^3H]-SR-141716A 1 nM; membranes from HEK293 cells expressing recombinant hCB1; Ki calculated from IC50 by Cheng-Prusoff
Experimental: The binding of compounds of Formula I to recombinant human CB1 receptors was determined in vitro by standard methods, with reference to the procedure described by Rinaldi-Carmona et al. (Rinaldi-Camona, M., Pialot, F., Congy, C., Redon, E., Barth, F., Bachy, A., Breliere, J. C., Soubre, P., LeFur, G., Life Sci. 1996, 58(15), 1239-1247). Membranes were prepared from HEK293 cells expressing recombinant hCB1 receptors. […] Non-specific binding is determined using CP55,940 (10 μM). […]
Assay readout: Ki (nM)

Worked set:
>>> df
                                   compound  observed_measurement
0  O=C(NC12CC3CC(CC(C3)C1)C2)N1CC(OC(c2ccc(Cl)cc2)c2ccc(Cl)cc2)C1                    19
1  CC(C)(C)NC(=O)N1CC(OC(c2ccc(Cl)cc2)c2ccccc2Cl)C1 (centres unmarked)                   4.5
2  CC(C)(C)NC(=O)N1CC(OC(c2ccc(Br)cc2F)c2ccccc2C(F)(F)F)C1 (centres unmarked)                   1.3

(I) CC(C)(C)NC(=O)N1CC(OC(c2ccc(S(C)(=O)=O)cc2)c2ccccc2C(F)(F)F)C1 (single isomer, unassigned)
(II) CC(C)(C)NC(=O)N1CC(OC(c2ccc(Cl)cc2)c2ccc(Cl)cc2)C1
(III) CC(C)(C)NC(=O)N1CC(OC(c2ccc(Cl)cc2)c2ccc(Cl)cc2Cl)C1 (centres unmarked)
(IV) CC(C)(C)NC(=O)N1CC(OC(c2ccc(Cl)cc2)c2ccccc2C(F)(F)F)C1 (single isomer, unassigned) [Example 139]
(V) CC(C)(C)NC(=O)N1CC(OC(c2ccc(Cl)cc2)c2ccccc2C(F)(F)F)C1 (racemic) [Example 81]
Query string: Rank entries according to their Ki, from the largest number down. Thanks in advance for listing the labels in the requested order.
Result string: II, I, III, V, IV
(II: 80 nM, I: 27 nM, III: 4.7 nM, V: 2.3 nM, IV: 0.6 nM)
